Biological target: T1, hGITR-hIgG (human, UniProt Q9Y5U5 26-161, limits assumed)
T1 construct: not shown: human IgG part of the fusion
T1 sequence: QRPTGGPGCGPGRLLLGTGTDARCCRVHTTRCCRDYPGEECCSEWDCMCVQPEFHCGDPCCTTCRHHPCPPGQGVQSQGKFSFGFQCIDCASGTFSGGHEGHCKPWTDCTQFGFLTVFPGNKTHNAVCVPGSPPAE
Assay: BIAcore SPR; hGITR-hIgG capture antigen, mAb analyte
We begin with a simple list: items and their reported koff.
Write the number in s⁻¹ without appending the unit.

- binder: "1D8 (antibody, V domains shown, Parental rodent anti-human GITR monoclonal antibody from a hybridoma; kappa VL; also called 1D8.B5) VH: QVTLKESGPGILKPSQTLSLTCSFSGFSLSTSGMGVGWIRQPSGKGLEWLAHIWWDDDKYYSPSLKSQLTISKDTSRNQVFLKITSLDTADTATYYCVRSYYYGSSGAMDYWGQGTSVTVSS VL: DIVMTQTPLSLPVSLGDQASISCRSSQSLVHSDGNTYLHWYLQKPGQSPKLLIYKVSKRFSGVPDRFSGSGSGTDFTLKISRVEAEDLGVYFCSQSTHVPPTFGGGTKLEIKR"
  unit_abbreviation: "s⁻¹"
  koff: 0.000196
- binder: "17F10 (antibody, V domains shown, Parental rodent anti-human GITR monoclonal antibody from a hybridoma; kappa VL; also called 17F10.B1) VH: EVKLVESGGGFVKPGGSLKLSCAASGFTVRNYAMSWVRQTPEKRLEWVASISTGDRSYLPDSMKGRFTISRDNARNILYLQMSSLRSEDTAIYYCQRYFDFDSFAFWGQGTLVTVSA VL: DIQMTQTPSSLSASLGDRVTISCRASQDINNFLNWYQQKPDGSLKLLIYYTSKLHSGVPSRFSGSGSGTDFSLTISNLDQEDVATYFCQQGHTLPPTFGGGTKLEVKR"
  unit_abbreviation: "s⁻¹"
  koff: 0.000146
- binder: "35D8 (antibody, V domains shown, Parental rodent anti-human GITR monoclonal antibody from a hybridoma; kappa VL; also called 35D8.B10) VH: EVQLQESGPSLVKPSQTLSLTCSVTGDSITSGYWNWIRKFPGNKLEYMGYISYSGSTYYNPSLRGRISITRDTSKSQYYLQLSSVTTEDTATYYCSRRHLGSGYGWFAYWGQGTLVTVSA VL: DIVMTQSHKFMSTSVGDRVSITCKASQDVNTAVAWYQQKPGQSPKLLIYWASTRHTGVPDRFTGSGSGTDYALTINSVQAEDLALYYCQQHSYTPPWTFGGGTKLEIRR"
  unit_abbreviation: "s⁻¹"
  koff: 0.0002
- binder: "61G6 (antibody, V domains shown, Parental rodent anti-human GITR monoclonal antibody from a hybridoma; kappa VL; also called 61G6.B6; hybridoma PTA-9891) VH: DVQLQESGPGLVKPSQSLSLTCTVTGYSITSDYAWNWIRQFPGNKLEWMGYISYSGSTRYNPSLKSRISITRDTSKNQFFLQLNSVTSEDTATYYCARQLGLRFFDYWGQGTTLTVSS VL: QIVLTQSPALMSASPGEKVTMTCSANSTVNYMYWYQQKPRSSPKPCIYLTSNLASGVPARFSGSGSGTSYSLTISSMEAEDAATYYCQQWNSNPPTFGAGTKLELRR"
  unit_abbreviation: "s⁻¹"
  koff: "6.9e-05"

Requested field: koff. Item: 6H6 (antibody, V domains shown, Parental rodent anti-human GITR monoclonal antibody from a hybridoma; kappa VL; also called 6H6.C3; hybridoma PTA-9892) VH: QVQLQQSGAELMKPGASVKISCKATGYTFSRYWIEWIKQRPGHGLEWIGEILPGSGSSNYNEKFKDKATFTADTSSNTAYMQFSSLTSEDSAVYYCARKVYYYAMDFWGQGTSVTVSS VL: QIVLTQSPAIMSVSLGERVTVTCTASSSVSSSYFHWYQQKPGSSPKLWIYSTSNLASGVPARFSGSGSGTSYSLTISTMEAEDAATYYCHQYHRSPRTFGGGTKLEIKR
0.000919
